Where do the numbers come from? From patent US20200121803A1.

Answer each item with its documented % Cell Viability at 50 nM.
# measured-target: T1, human CD98, endogenously expressed on Molt-4 human acute lymphoblastic leukemia cells (human)
# T1 chain: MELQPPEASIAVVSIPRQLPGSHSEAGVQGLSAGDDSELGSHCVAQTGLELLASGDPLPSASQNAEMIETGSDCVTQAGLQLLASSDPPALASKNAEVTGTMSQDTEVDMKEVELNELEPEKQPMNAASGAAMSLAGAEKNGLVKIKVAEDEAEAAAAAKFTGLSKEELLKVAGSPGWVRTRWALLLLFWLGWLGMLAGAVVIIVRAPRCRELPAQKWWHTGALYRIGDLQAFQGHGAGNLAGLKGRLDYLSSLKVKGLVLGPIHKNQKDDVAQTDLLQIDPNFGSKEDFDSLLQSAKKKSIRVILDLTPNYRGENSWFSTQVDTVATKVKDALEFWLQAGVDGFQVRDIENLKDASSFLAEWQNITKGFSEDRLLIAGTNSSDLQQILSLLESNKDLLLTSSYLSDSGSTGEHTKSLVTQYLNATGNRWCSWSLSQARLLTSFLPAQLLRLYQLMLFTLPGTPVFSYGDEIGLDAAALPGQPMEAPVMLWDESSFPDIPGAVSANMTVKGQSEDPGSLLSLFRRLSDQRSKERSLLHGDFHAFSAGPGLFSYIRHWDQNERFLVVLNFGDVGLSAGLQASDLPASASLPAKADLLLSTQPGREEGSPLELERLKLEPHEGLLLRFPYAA
# run-description: cell-based or functional assay

What does the record list as % Cell Viability at 50 nM for CD98 (CL-huAb110)-ZT (antibody, human IgG1, kappa, L234A L235A, V domains shown, synthon ZT on reduced interchain cysteines (sites not given)) VH: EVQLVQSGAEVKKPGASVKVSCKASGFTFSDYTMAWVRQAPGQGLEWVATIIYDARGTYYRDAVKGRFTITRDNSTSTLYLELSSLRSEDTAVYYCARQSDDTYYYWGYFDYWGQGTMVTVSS VL: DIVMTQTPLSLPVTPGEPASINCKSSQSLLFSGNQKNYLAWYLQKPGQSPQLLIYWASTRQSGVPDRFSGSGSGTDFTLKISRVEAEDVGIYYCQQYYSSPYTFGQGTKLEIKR ? 3.5%

What does the record list as % Cell Viability at 50 nM for CD98 (CL-huAb104)-TV (antibody, human IgG1, kappa, L234A L235A, V domains shown, synthon TV on reduced interchain cysteines (sites not given)) VH: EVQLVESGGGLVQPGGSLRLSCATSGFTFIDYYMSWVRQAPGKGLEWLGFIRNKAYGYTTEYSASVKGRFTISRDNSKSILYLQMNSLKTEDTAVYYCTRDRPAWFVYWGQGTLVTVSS VL: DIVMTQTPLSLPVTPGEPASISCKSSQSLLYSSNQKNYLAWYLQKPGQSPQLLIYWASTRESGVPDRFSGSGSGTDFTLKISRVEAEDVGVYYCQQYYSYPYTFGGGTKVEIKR ? 1.4%

What does the record list as % Cell Viability at 50 nM for CD98 (CL-huAb108)-CZ (antibody, human IgG1, kappa, L234A L235A, V domains shown, synthon CZ on reduced interchain cysteines (sites not given)) VH: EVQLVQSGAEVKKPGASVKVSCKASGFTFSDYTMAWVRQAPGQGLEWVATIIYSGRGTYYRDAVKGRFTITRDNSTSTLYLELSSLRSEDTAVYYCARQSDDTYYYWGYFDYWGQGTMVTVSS VL: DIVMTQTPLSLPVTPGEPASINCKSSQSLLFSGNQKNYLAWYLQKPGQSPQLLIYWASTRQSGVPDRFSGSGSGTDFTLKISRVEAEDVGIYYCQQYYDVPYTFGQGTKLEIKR ? 1.1%
